Attribution: patent US20180186897A1

target: erythrocytes infected with P. falciparum field isolate 9605; assay: flow cytometry, staining of IEs

- binder: "MGC35 (antibody) VH: EVQLVESGGGLVQPGGSLRLSCEASGFNSRSYWMTWVRQAPGKGLEWVASINQDATEKNYVDSVKGRFTISRDTAKNSLYLQMNSLRAEDTAVYYCARDRFCGGESHLHGQEDLPRPSISAEPGSVIPLGSLVTFVCRGPVGVHTFRLERGWTYNDTEDVSQAGPSESEARFRMDSVREGNAGLYRCIYYKPPKWSEQSAYLELRVKGGDVTWALLTYCGGDGEESDYPMDVWGKGTTVTVSS VL: QTVVTQEPSLTVSPGGTVTLTCASSTGPVTSAYYPNWFQQKPGQAPRSLIYNINKKHSWTPDRFSGSLLGGKAALTLSGVQPEDEADYYCLLSCGGAQPWVFGGGTKLTVQ"
  % parasite recognition (%): 15.9
- binder: "MGC7 (antibody) VH: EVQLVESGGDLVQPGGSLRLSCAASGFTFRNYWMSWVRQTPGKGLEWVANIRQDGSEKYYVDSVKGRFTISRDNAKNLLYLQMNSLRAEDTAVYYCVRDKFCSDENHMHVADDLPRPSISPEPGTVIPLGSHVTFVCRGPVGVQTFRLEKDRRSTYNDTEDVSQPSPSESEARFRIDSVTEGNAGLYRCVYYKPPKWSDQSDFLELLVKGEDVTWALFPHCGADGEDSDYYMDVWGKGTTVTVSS VL: DIQMTQSPSSVSASVGDRVTITCRASQGLSTWLAWYQQKPGKAPKILIYAASSLQSGVPSRFSGSGSGTDFTLTISSLQPEDFATYYCQQANSFPLTFGGGTKVEIK"
  % parasite recognition (%): 22.8
- binder: "MGC2 (antibody) VH: EVQLVESGGGLVQPGGSLRLSCAASGFTFSNFWMGWVRQTPGKGLEWVANIKEDGSEKYYVDSVRGRFTISRDSAKNSLYLQMNSLRAEDTAVYYCVRERFCSNHIHKEEHLPRPSISPEPGTVITLGSHVTFVCRGPVGVQTFRLEKDSRSTYNDTEDVSQPSPSESEARFRIDSVSEGYAGLYRCLYYKPPKWSEQSDYLELLVKGDDVTWALYPSCGGDGEASDYNMDVWGKGTTVTVSS VL: DIQMTQSPSTLSASVGDRVTISCRASQRFSGWLAWYQQKPGKAPNLLIYKASPLAGGGPSRFSGSGSGTDFTLTISSLQPDDSATYYCQHYSNYSYTFGQGTKLEIR"
  % parasite recognition (%): 22.4
- binder: "MGC4 (antibody) VH: EVQLVESGGGLVQPGGSLRLSCEGSGFNSRSYWMTWVRQAPGKGLEWVASINQDGTEKNYVDSVKGRFTISRDSAKNSLYLQMSSLRADDTAVYYCARDRFCGGESHLHGEEDLPRPSISAEPDTVIPLGSHVTFVCRGPVGVHTFRLERGWRYNDTEDVSQAGPSESEARFRIDSVREGNAGLYRCIYYIAPKWSEQSDYLELRVKGGDVTWALLTYCGGDGEESDYPMDVWGKGTTVTVSS VL: QTVVTQEPSLTVSPGGTVTLTCASSTGPVTSAYYPNWFQQKPGQAPRSLIYSINKKHSWTPARFSGSLLGGKAALTLSGVQPEDEADYYCLLSCGGAQPWVFGGGTKLTVQ"
  % parasite recognition (%): 22.2
- binder: "MGC36 (antibody) VH: EVVLVESGGGLVQPGGSLRLSCEASGFNSRSYWMTWVRQAPGKGLEWVASINQDGTEKNYVDSVKGRFTISRDSAKNSLYLQMSSLRADDTAVYYCARDRFCGGESHLHGEEDLPRPSISAEPDTVIPLGSHVTFVCRGPVGVHTFRLERGWRYNDTEDVSQAGPSESEARFRIDSVREGNAGLYRCIYYIAPKWSEQSDYLELRVKGGDVTWALLTYCGGDGEESDYPMDVWGKGTTVTVSS VL: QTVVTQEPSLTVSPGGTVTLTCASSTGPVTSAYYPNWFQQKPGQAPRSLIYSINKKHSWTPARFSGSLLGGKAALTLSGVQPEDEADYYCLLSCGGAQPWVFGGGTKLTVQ"
  % parasite recognition (%): 17.9
- binder: "MGC1 (antibody) VH: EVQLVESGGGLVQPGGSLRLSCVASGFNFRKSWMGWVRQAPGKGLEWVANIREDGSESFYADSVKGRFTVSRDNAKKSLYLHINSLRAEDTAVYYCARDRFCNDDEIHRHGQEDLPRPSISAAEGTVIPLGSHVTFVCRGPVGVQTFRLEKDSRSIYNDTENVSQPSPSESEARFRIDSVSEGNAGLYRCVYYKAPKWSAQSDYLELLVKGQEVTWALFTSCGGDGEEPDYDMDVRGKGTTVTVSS VL: DIVMTQSPDSLAVSLGERATINCKSSQSVLYRSKNKNYLAWFQQKPGQPPKVLIYSTSTRASGVPDRFTGSGSGTDFTLTISSLQAEDVAVYYCLQYYITPYTFGQGTKLEIK"
  % parasite recognition (%): 19.5
- binder: "MGC33 (antibody) VH: EVHLVESGGGLVQPGGSLRLSCEASGFTFSSYWMTWVRQAPGKGLEWVANINQDGSERYYVDSVKGRFTISRDTVKNSLYLQMNNLRAEDTAVYYCARQRFCSDGSLFHGEDLPRPTISAETGTVISLGSHVTFVCRGPLGVQTFRLERESRSRYSETEDVSQVGPSESEARFRIDSVSEGNAGLYRCIYYKPPKWSEQSDYLELRVKGEDVTWALLTYCGGDRDESDYYMDVWGKGTTVTVSS VL: QTVVTQEPSLTVSPGGTVTLTCASSTGSVTSGSFPNWFQQTPGQAPRSLIYSTTKKHSWTPARFSGSLLGGKAALTVSDTQPEDEAEYYCLLYCGGGQPWVFGGGTKLTVQ"
  % parasite recognition (%): 22.3
